Hey, just so you know, these numbers are from patent US20220175942A1.

- target-of-assay: T1, CCL8_HUMAN (human, UniProt P80075 24-99)
- T1 chain: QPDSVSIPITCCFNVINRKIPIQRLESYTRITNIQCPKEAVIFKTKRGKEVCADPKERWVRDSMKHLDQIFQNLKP
- test-summary: BLI
pKd: −log10 of the molar value.

binder	pKd
P985_AMBPA (other) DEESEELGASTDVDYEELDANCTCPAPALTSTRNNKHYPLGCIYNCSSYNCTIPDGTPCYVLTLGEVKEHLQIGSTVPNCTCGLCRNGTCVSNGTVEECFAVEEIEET	8.19
P1243_AMBAM (other) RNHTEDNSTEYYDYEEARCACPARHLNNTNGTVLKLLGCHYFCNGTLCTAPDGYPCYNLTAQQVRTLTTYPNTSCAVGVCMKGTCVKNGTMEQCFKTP	7.66
P1180_AMBTR (other) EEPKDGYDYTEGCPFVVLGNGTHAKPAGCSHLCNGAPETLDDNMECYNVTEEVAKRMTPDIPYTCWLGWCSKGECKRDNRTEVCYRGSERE	8.44
P983_AMBCA (other) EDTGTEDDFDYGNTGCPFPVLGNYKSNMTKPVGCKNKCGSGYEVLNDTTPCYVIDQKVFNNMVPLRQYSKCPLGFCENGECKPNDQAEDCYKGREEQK	8.16
